These measurements were taken from PubChem BioAssay (NCI).

# Test system: K-562 leukemia
# MEASUREMENT PROTOCOL: NCI tumour cell line growth inhibition, 48 h
READOUT TYPE: TGI

In: Output reported TGI of the molecule CCCCC(O)(c1ccc(Cl)cc1)C(CN1CCOCC1)c1ccc(Cl)cc1 (stereo not drawn) on K-562 leukemia.
Out: 41.1 µM

In: Give TGI for this entry on K-562 leukemia: "CN1CCN(CCCOc2ccc3nc(Nc4ccc(Cl)c(C(F)(F)F)c4)ccc3c2)CC1"
Out: 5.78 µM

In: // fetch TGI for "NS(=O)(=O)c1ccc(NC2(C(=O)O)CCCC2)cc1" ; system: K-562 leukemia
Out: > 100 µM

In: For K-562 leukemia, give TGI of the listed molecule: CC(C)C(Nc1c2ccccc2nc2ccccc12)C(=O)O (stereo not drawn)
Out: > 100 µM

In: Return reported TGI for target or system K-562 leukemia, item C=CC(CCc1ccc(C(=O)OCC)cc1)c1c(N)nc(N)[nH]c1=O (stereo not drawn) .
Out: > 100 µM

In: Report value only: TGI, K-562 leukemia, Cn1c2c(c3ccccc31)CC1c3c(c4ccccc4n3C)CC21 (stereo not drawn)
Out: > 100 µM

In: Report TGI on K-562 leukemia for this entry: COc1cc2c(cc1OC)C(CC(=O)NN=C(C)C)NCC2 (stereo not drawn)
Out: > 100 µM

In: Output reported TGI of the molecule "Cc1nc(-c2cc3cc([N+](=O)[O-])ccc3oc2=O)cs1" on K-562 leukemia.
Out: > 100 µM
